Origin of values: PubChem BioAssay (NCI)

- Test system: SK-MEL-5 melanoma
- assayRemarks: NCI-60 one-dose screen, 48 h
- cond: 10 µM unless noted
Compounds without any hit were thinned out: in the full panel of roughly 83,000, 20% have a hit. Activity calls are given as the source filed them. The calls were made as follows: active = growth percent below 10; inactive = the rest.
Return exactly one item of T = active, F = inactive

Below, 6 compounds whose answers are already recorded.
Cc1cnc(N)s1 : F
Cc1c(Cl)c(C)c(Cc2c(C)c(Cl)c(C)c(Cl)c2O)c(O)c1Cl : T
O=C(N=C1C(=O)C2(CCCCC2)C2(N=C(c3ccccc3)OC2=O)C12CCCCC2)c1ccccc1 (stereo not drawn) : F
COC(=O)c1cc(C(=O)OC)cc([N+](=O)[O-])c1 : F
CC(=O)C[n+]1ccccc1Sc1ccc(Cl)cc1 : F
C/C=C(/C(=O)NC(N)=O)C(C)C : F

In: Write down the call the test reported for this compound. Item: O=c1[nH]c(=S)[nH]n1C(=S)n1[nH]c(=S)[nH]c1=O
Out: F

In: What call does the record list for CCOC(=O)c1ccc(C(=N)N)cc1 ?
Out: F

In: Just curious, what result did CC(C)(C)OC(=O)NCCc1ccc(N)cc1 get here?
Out: F

In: Recorded test call requested for O=[N+]([O-])c1cccc(N=Cc2ccccc2)c1
Out: F

---

- Tested on: KM12 colon
- assayRemarks: NCI-60 one-dose screen, 48 h
- cond: 10 µM unless noted
The panel holds about 83,000 compounds, 20% with a hit somewhere; the sample as a whole holds those more often. Calls of active or inactive are those of the source. Rule for the calls: active = growth percent below 10; inactive = the rest.
Bench note: report the call from active, inactive

Worked examples follow.
COc1ccc(/C=N/Nc2nc3ccccc3s2)cc1 : inactive
O=c1[nH]c(=S)[nH]n1C(=S)n1[nH]c(=S)[nH]c1=O : inactive
CN(C)CC(CN(C)C)C(O)c1ccccc1 (stereo unspecified) : inactive
C/C=C/C(=O)OCCCCCCCCCCCC : inactive
CCCC(=O)Oc1ccc(CC)cc1 : inactive
CC1CC(O)CC(C)(C)C1.CC1CC(O)CC(C)(C)C1.CC1CC(O)CC(C)(C)C1.CC1CC(O)CC(C)(C)C1.[Ti] (stereo unspecified) : inactive

In: Identify the outcome logged in this assay for the molecule shown: O=COCCCc1ccccc1
Out: inactive

In: Check the results log: what was the call for CN(C)C(=S)N(C)C ?
Out: inactive

In: For O=[N+]([O-])c1ccc(N2CCN=N2)cc1 , what call appears in the results of this test?
Out: inactive

In: Would you mind telling me which call this test gave CCCCC/C(C)=N\NC(N)=S ?
Out: inactive

In: Short answer needed: outcome of this test for S=c1nn[nH]n1C1CCCCC1 ?
Out: inactive

In: Would you mind telling me which call this test gave O=C1C2=C(Nc3cc(Cl)ccc3N2)OC1c1c[nH]c2ccc(COc3ccccc3)cc12 (stereo unspecified) ?
Out: inactive

In: Just curious, what result did O=C(O)COc1ccccc1F get here?
Out: inactive

In: Query: recorded result category for OCc1cccc(F)c1 in this test
Out: inactive

In: Returns: the outcome recorded for O=[N+]([O-])c1ccc(NC(c2ccccc2)c2ccc3cccnc3c2O)cc1 (stereo unspecified) in this assay.
Out: inactive

In: What did the test return for CC(C)(C)OC(=O)CC1(O)CCCCC1 ?
Out: inactive

---

- Test system: LOX IMVI melanoma
- assayRemarks: NCI-60 one-dose screen, 48 h (100 = growth as untreated, 0 = no growth, -100 = all killed)
- cond: 10 µM unless noted
This is part of a sample that, as a whole, favours compounds with a hit. Of some 83,000 tested, about 20% had one in any assay.
readout: growth (%)
Output spec: scalar in %, unitless text.

CCN(C)c1ccccc1 : 98.4

In: Tell me reported growth for CC1=CC(=O)c2cccc(NC3=NCCO3)c21 , tested with LOX IMVI melanoma.
Out: 98.4

In: Form field: growth recorded for C=CCN1C(=O)c2ccccc2C1=O with LOX IMVI melanoma (enter value)
Out: 94.7

In: Form: Entry = COc1ccc(CCn2cnn3c(=O)c4ccccc4nc3c2=O)cc1OC | System = LOX IMVI melanoma | growth = ____
Out: 98

In: Short answer please: growth, LOX IMVI melanoma, entry CC1CC(O)CC(C)(C)C1.CC1CC(O)CC(C)(C)C1.CC1CC(O)CC(C)(C)C1.CC1CC(O)CC(C)(C)C1.[Ti] (stereo unspecified)
Out: 106

In: Fill in the recorded growth for this molecule, with LOX IMVI melanoma as test system: Cc1nc2c(=O)[nH]c(=S)[nH]c2[nH]c1=O
Out: 96

In: State its growth on LOX IMVI melanoma: O=C(N=C1C(=O)C2(CCCCC2)C2(N=C(c3ccccc3)OC2=O)C12CCCCC2)c1ccccc1 (stereo unspecified)
Out: 71.5

In: Any idea what growth came out for COc1cc(Cl)ccc1C on LOX IMVI melanoma?
Out: 77.1

In: Reported growth for LOX IMVI melanoma, given COC(=O)c1ccccc1Cl ?
Out: 98.6

In: Entry CCc1ccc(OC(=O)CCl)cc1 , system LOX IMVI melanoma: what growth was measured?
Out: 93.3

In: What growth appears in the records for this molecule with LOX IMVI melanoma? CC1(C)CC(=O)NC1=O
Out: 95.9

In: What growth appears in the records for this molecule with LOX IMVI melanoma? CCC(C)(O)CCC(C)(O)CC (stereo unspecified)
Out: 98.1

In: Please state recorded growth (tested on LOX IMVI melanoma) of CCCCCCC(C)CC1=C(O)c2ccccc2C(=O)C1=O (stereo unspecified)
Out: 10.2

---

- Test system: U251 CNS
- assayRemarks: NCI-60 one-dose screen, 48 h (100 = growth as untreated, 0 = no growth, -100 = all killed)
- cond: 10 µM unless noted
This is part of a sample that, as a whole, favours compounds with a hit. Of some 83,000 tested, about 20% had one in any assay.
readout: growth (%)
Give just the number in %; leave the unit off.

Worked set:
Clc1ccc2c(c1)N(C1CCCN(Cc3ccccc3)C1)c1ccccc1S2 (stereo not given) : 17.4
O=C1C=CC(n2cc(F)c(=O)[nH]c2=O)O1 (stereo not given) : 82.2
C/C(=C\c1ccccc1)C(O)C(=O)c1nc2ccc([N+](=O)[O-])cc2[nH]c1=O (stereo not given) : 83.2
Cc1c(Cl)c(C)c(Cc2c(C)c(Cl)c(C)c(Cl)c2O)c(O)c1Cl : 8.95
O=C1C=CC(=O)N1Cc1ccco1 : 81.4

In: For COc1ccc(-n2[nH]c3c(cnc4ccccc43)c2=O)cc1 , what is its reported growth?
Out: 107

In: growth lookup needed for O=C1c2ccccc2C(c2ccccc2)C1c1ccccc1 (stereo not given) , thanks.
Out: 101

In: Find the recorded growth belonging to O=C(O)c1ccc2c3ccc(C(=O)O)c4c(C(=O)O)ccc(c5ccc(C(=O)O)c1c25)c43 and report it.
Out: 106

---

- Tested on: HCC-2998 colon
- assayRemarks: NCI-60 one-dose screen, 48 h (100 = growth as untreated, 0 = no growth, -100 = all killed)
- cond: 10 µM unless noted
About 83,000 compounds went through this panel and 20% of them were active in at least one assay; those are over-represented in the sample as a whole.
readout: growth (%)
Number only, in %; omit the unit.

CC1=CC(=O)c2cccc(NC3=NCCO3)c21 : 104

In: Item O=C(O)c1ccc2c3ccc(C(=O)O)c4c(C(=O)O)ccc(c5ccc(C(=O)O)c1c25)c43 has what recorded growth?
Out: 76.9

In: Please look up its growth: Cc1c(Cl)c(C)c(Cc2c(C)c(Cl)c(C)c(Cl)c2O)c(O)c1Cl
Out: 25.7

In: Form field: reported growth of Cc1cccc(Cl)c1N
Out: 102

In: What value of growth has been recorded for this entry: OCc1cccc(F)c1
Out: 99.4

In: Record request: growth value, item Cc1cc(=NO)cc(C)n1O
Out: 120

In: # input compound: CCOCCC(=O)O ; wanted: its growth
Out: 123

In: Tell me the measured growth of O=C(c1ccc(Cl)cc1)C1C(c2ccccc2)C1[N+](=O)[O-] (configuration not stated) , please.
Out: 96.9

---

- System: HOP-62 NSCLC
- assayRemarks: NCI-60 one-dose screen, 48 h (100 = growth as untreated, 0 = no growth, -100 = all killed)
- cond: 10 µM unless noted
The panel holds about 83,000 compounds, 20% with a hit somewhere; the sample as a whole holds those more often. Calls of active or inactive are those of the source. Rule for the calls: active = growth percent below 10; inactive = the rest.
// reported growth per item

Cc1cc2ccccc2c2cc3ccccc3cc12 : 85.6% (inactive)
Nc1nc(-c2ccccn2)cc(-c2cc(-c3ccccn3)nc(N)n2)n1 : 119% (inactive)

In: Which measured growth value corresponds to CS(=O)(=O)c1nsc(N)n1 ?
Out: 89.5% (inactive)
